EXPERIMENTAL SYSTEM: Quinolone resistance protein NorA (Staphylococcus aureus)
PROCEDURE SUMMARY: Inhibition of NorA in Staphylococcus aureus SA-1199B expressing GrlA A116E mutant assessed as reduction in EtBr efflux at 50 uM incubated for 5 mins by fluorescence based assay
Classify on inhibition using category 1: < 80%; category 2: ≥ 80% and < 90%; category 3: ≥ 90%

Answered examples (5):
1) CCCOc1ccc(-c2cc(OCCN3CCCCCC3)c3c(OC)cccc3n2)cc1    category 1
2) CCCOc1ccc(-c2cc(OCCN3CCc4cc(OC)c(OC)cc4C3)c3cc(OC)ccc3n2)cc1    category 1
3) CCCOc1ccc(-c2cc(OCCN3CCCCC3)c3c(OC)cccc3n2)cc1    category 2
4) CCCOc1ccc(-c2cc(OCCN(CC)CC)c3cccc(OC)c3n2)cc1    category 2
5) CCCOc1ccc(-c2cc(OCCN(CC)CC)c3c(OC)cccc3n2)cc1    category 3

Problem: Category of CCCOc1ccc(-c2cc(OCCN3CCCCCC3)c3c(OC)cc(OC)cc3n2)cc1 , please.
Solution: category 1

====

EXPERIMENTAL SYSTEM: Quinolone resistance protein NorA (Staphylococcus aureus) (UniProt P0A0J7)
Sequence (whole entry): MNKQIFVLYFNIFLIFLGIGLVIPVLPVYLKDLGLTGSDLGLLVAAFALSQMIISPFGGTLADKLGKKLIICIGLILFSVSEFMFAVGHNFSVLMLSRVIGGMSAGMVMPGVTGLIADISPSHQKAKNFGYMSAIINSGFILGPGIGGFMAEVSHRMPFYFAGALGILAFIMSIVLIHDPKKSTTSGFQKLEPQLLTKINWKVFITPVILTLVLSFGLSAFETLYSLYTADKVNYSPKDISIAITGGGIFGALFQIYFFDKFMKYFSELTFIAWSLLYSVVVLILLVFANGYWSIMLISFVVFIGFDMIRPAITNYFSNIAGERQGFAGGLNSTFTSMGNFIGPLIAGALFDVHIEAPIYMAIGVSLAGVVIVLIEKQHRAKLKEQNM
PROCEDURE SUMMARY: Inhibition of NorA in Staphylococcus aureus SA-1199B expressing GrlA A116E mutant assessed as synergistic potentiation of ciprofloxacin-induced antimicrobial activity at 0.78 to 100 ug/ml by microdilution method based Checkerboard assay
Calls of active or inactive are those of the source. The rule behind the calls is not given here.
MEASUREMENT LABEL: inhibition

1. CCCOc1ccc(-c2cc(OCCN(CC)CC)c3cc(OC)cc(OC)c3n2)cc1    Active
2. CCCOc1ccc(-c2cc(OCCN3CCCCCC3)c3ccc(OC)cc3n2)cc1    Active
3. CCCOc1ccc(-c2cc(OCCN3CCCCC3)c3cc(OC)c(OC)cc3n2)cc1    Active
4. CCCOc1ccc(-c2cc(OCCN3CCN(Cc4ccccc4)CC3)c3ccc(OC)cc3n2)cc1    Active
5. CCCOc1ccc(-c2cc(OCCN3CCCCCC3)c3cc(OC)ccc3n2)cc1    Active

Please find the next compound below.
Problem: Identify the measured inhibition of CCCOc1ccc(-c2cc(OCCN3CCCCC3)c3ccc(OC)cc3n2)cc1 for Quinolone resistance protein NorA (Staphylococcus aureus) (UniProt P0A0J7).
Solution: Active

====

EXPERIMENTAL SYSTEM: Quinolone resistance protein NorA (Staphylococcus aureus)
Sequence (whole entry): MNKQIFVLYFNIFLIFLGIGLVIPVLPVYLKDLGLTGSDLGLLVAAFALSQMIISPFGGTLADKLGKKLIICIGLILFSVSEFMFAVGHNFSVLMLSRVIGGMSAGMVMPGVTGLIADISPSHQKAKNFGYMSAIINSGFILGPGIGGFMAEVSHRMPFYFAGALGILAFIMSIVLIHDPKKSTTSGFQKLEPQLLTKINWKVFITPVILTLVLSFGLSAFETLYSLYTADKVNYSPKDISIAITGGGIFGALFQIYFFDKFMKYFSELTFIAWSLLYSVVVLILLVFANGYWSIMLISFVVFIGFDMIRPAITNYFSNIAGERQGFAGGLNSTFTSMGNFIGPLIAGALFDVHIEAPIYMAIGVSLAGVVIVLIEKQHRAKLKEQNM
PROCEDURE SUMMARY: Inhibition of NorA in Staphylococcus aureus SA-1199B expressing GrlA A116E mutant assessed as minimal potentiating drug concentration causing 8 fold reduction in ciprofloxacin MIC by microdilution method based Checkerboard assay
MEASUREMENT LABEL: Activity (µg/mL)
Numeric only. Scale: µg/mL

1) CCCOc1ccc(-c2cc(OCCN(CC)CC)c3cc(OC)ccc3n2)cc1    6.25
2) CCCOc1ccc(-c2cc(OCCN3CCCCCC3)c3cc(OC)cc(OC)c3n2)cc1    1.56
3) CCCOc1ccc(-c2cc(OCCN3CCc4cc(OC)c(OC)cc4C3)c3ccc(OC)cc3n2)cc1    3.13
4) CCCOc1ccc(-c2cc(OCCN(CC)CC)c3cc(OC)cc(OC)c3n2)cc1    6.25
5) CCCOc1ccc(-c2cc(OCCN(CC)CC)c3ccc(OC)cc3n2)cc1    6.25

Problem: Identify the measured Activity of CCCOc1ccc(-c2cc(OCCN3CCCCC3)c3cc(OC)c(OC)cc3n2)cc1 for Quinolone resistance protein NorA (Staphylococcus aureus).
Solution: 3.13

Problem: Identify the measured Activity of CCCOc1ccc(-c2cc(OCCN3CCc4cc(OC)c(OC)cc4C3)c3cc(OC)cc(OC)c3n2)cc1 for Quinolone resistance protein NorA (Staphylococcus aureus).
Solution: 3.13

Problem: Identify the measured Activity of CCCOc1ccc(-c2cc(OCCN3CCCCCC3)c3ccc(OC)cc3n2)cc1 for Quinolone resistance protein NorA (Staphylococcus aureus).
Solution: 3.13

Problem: Identify the measured Activity of CCCOc1ccc(-c2cc(OCCN3CCCCC3)c3cc(OC)cc(OC)c3n2)cc1 for Quinolone resistance protein NorA (Staphylococcus aureus).
Solution: 6.25

====

EXPERIMENTAL SYSTEM: Quinolone resistance protein NorA (Staphylococcus aureus) (UniProt P0A0J7)
PROCEDURE SUMMARY: Inhibition of NorA in Staphylococcus aureus SA-1199B expressing GrlA A116E mutant assessed as reduction in EtBr efflux at 50 uM incubated for 5 mins by fluorescence based assay
Each entry below carries its recorded inhibition.
Mention the unit after the number when you answer.

1. CCCOc1ccc(-c2cc(OCCN3CCc4cc(OC)c(OC)cc4C3)c3cc(OC)c(OC)cc3n2)cc1    94.1%

Problem: Given CCCOc1ccc(-c2cc(OCCN(CC)CC)c3ccc(OC)cc3n2)cc1 , state its recorded inhibition.
Solution: 100%

Problem: Given CCCOc1ccc(-c2cc(OCCN(CC)CC)c3c(OC)cc(OC)cc3n2)cc1 , state its recorded inhibition.
Solution: 93.1%

Problem: Given CCCOc1ccc(-c2cc(OCCCl)c3cccc(OC)c3n2)cc1 , state its recorded inhibition.
Solution: 6.8%

Problem: Given CCCOc1ccc(-c2cc(OCCN3CCCCCC3)c3cc(OC)cc(OC)c3n2)cc1 , state its recorded inhibition.
Solution: 80.3%

====

System: Staphylococcus aureus
PROCEDURE SUMMARY: Antimicrobial activity against Staphylococcus aureus SA-1199B expressing wild type norA by microdilution method
Format: organism-based
EXPERIMENTAL PARAMETERS: in vivo
Each entry below carries its recorded MIC.
Numeric only. Scale: µg/mL

Before answering, review these 4 worked examples.
1) CCCOc1ccc(-c2cc(OCCCN(C)C)c3ccc(OC)cc3n2)cc1    100
2) CCCOc1ccc(-c2cc(OCCN3CCc4cc(OC)c(OC)cc4C3)c3c(OC)cc(OC)cc3n2)cc1    100
3) CCCOc1ccc(-c2cc(OCCN(CC)CC)c3c(OC)cccc3n2)cc1    12.5
4) CCCOc1ccc(-c2cc(OCCN3CCCCCC3)c3cc(OC)ccc3n2)cc1    25

Please find the next compound below.
Problem: Given CCCOc1ccc(-c2cc(OCCN3CCc4cc(OC)c(OC)cc4C3)c3cc(OC)cc(OC)c3n2)cc1 , state its recorded MIC.
Solution: 25

====

Test system: Staphylococcus aureus
PROCEDURE SUMMARY: Antimicrobial activity against NorA deficient Staphylococcus aureus SA-K1902 by microdilution method
Assay type: organism-based
EXPERIMENTAL PARAMETERS: in vivo
Each entry below carries its recorded MIC.
Numeric only. Scale: µg/mL

Before answering, review these 2 worked examples.
1. CCCOc1ccc(-c2cc(OCCN(CC)CC)c3ccc(OC)cc3n2)cc1    25
2. CCCOc1ccc(-c2cc(OCCN3CCc4cc(OC)c(OC)cc4C3)c3cc(OC)cc(OC)c3n2)cc1    25

Please find the next compound below.
Problem: Given O=C(O)c1cn(C2CC2)c2cc(N3CCNCC3)c(F)cc2c1=O [CIPROFLOXACIN] , state its recorded MIC.
Solution: 0.31

====

Each entry below carries its recorded MIC.
System: Staphylococcus aureus
PROCEDURE SUMMARY: Antimicrobial activity against Staphylococcus aureus SA-1199B expressing wild type norA and co-expressing GrlA A116E mutant by microdilution method
Type: organism-based
EXPERIMENTAL PARAMETERS: in vivo

1. CCCOc1ccc(-c2cc(OCCN(CC)CC)c3ccccc3n2)cc1    > 241 µM
2. CCCOc1ccc(-c2cc(OCCN3CCCCC3)c3cc(OC)c(OC)cc3n2)cc1    > 222 µM
3. CCCOc1ccc(-c2cc(OCCN3CCc4cc(OC)c(OC)cc4C3)c3ccc(OC)cc3n2)cc1    > 189 µM
4. CCCOc1ccc(-c2cc(OCCN(CC)CC)c3c(OC)cccc3n2)cc1    30.6 µM

Problem: Identify the measured MIC of CCCOc1ccc(-c2cc(OCCN(CC)CC)c3c(OC)cc(OC)cc3n2)cc1 for Staphylococcus aureus.
Solution: > 228 µM

Problem: Identify the measured MIC of CCCOc1ccc(-c2cc(OCCN3CCNCC3)c3cc(OC)ccc3n2)cc1 for Staphylococcus aureus.
Solution: 29.6 µM

Problem: Identify the measured MIC of CCCOc1ccc(-c2cc(OCCN3CCCCCC3)c3ccc(OC)cc3n2)cc1 for Staphylococcus aureus.
Solution: 212.3 µM

Problem: Identify the measured MIC of CCCOc1ccc(-c2cc(OCCN3CCCCC3)c3cc(OC)cc(OC)c3n2)cc1 for Staphylococcus aureus.
Solution: > 222 µM

Problem: Identify the measured MIC of CCCOc1ccc(-c2cc(OCCN(CC)CC)c3cc(OC)cc(OC)c3n2)cc1 for Staphylococcus aureus.
Solution: > 228 µM
